assay: Inhibition of cAMP dependent Protein kinase A (PKA) catalytic subunit from bovine heart; parameters: species or system Bos taurus
Square brackets hold non-standard residues; d marks the D form. Peptide text beside a SMILES is read from it. * marks the point of attachment. ξ: configuration not given here. Adenosine(5'-uronoyl) = Nc1ncnc2c1ncn2[C@@H]1O[C@H](C(=O)*)[C@@H](O)[C@H]1O; Biotin = O=C1N[C@H]2[C@H](CS[C@H]2CCCCC(=O)*)N1; NHCH2CH2OCH2CH2OMe = COCCOCCN*; NH(CH2)6NH2 = NCCCCCCN*; ξK = NCCCCC(N)C(=O)O; Ahx = NCCCCCC(=O)O
Recorded pIC50 by entry
Quick note: pIC50 values are minus log10 of concentrations in mol/L.

Consider the worked cases shown below.
| compound | pIC50 |
| --- | --- |
| N=C(N)NCCC[C@H](NC(=O)[C@H](CCCNC(=N)N)NC(=O)[C@H](CCCNC(=N)N)NC(=O)[C@H](CCCNC(=N)N)NC(=O)[C@H](CCCNC(=N)N)NC(=O)[C@H](CCCNC(=N)N)NC(=O)CCCCCNC(=O)[C@H]1O[C@@H](n2cnc3c(N)ncnc32)[C@H](O)[C@@H]1O)C(=O)O | 6.15 |
| NCCCCCCNC(=O)[C@H](CCCN=C(N)N)NC(=O)[C@H](CCCN=C(N)N)NC(=O)[C@H](CCCN=C(N)N)NC(=O)[C@H](CCCN=C(N)N)NC(=O)CCCCCNC(=O)[C@H]1O[C@@H](n2cnc3c(N)ncnc32)[C@H](O)[C@@H]1O ({Adenosine(5'-uronoyl)-Ahx}-RRRR-{NH(CH2)6NH2}) | 6.17 |
| COCCOCCNC(=O)C(CCCCNC(=O)CCCC[C@@H]1SC[C@@H]2NC(=O)N[C@@H]21)NC(=O)[C@H](CCCN=C(N)N)NC(=O)[C@H](CCCN=C(N)N)NC(=O)[C@H](CCCN=C(N)N)NC(=O)[C@H](CCCN=C(N)N)NC(=O)CCCCCNC(=O)[C@H]1O[C@@H](n2cnc3c(N)ncnc32)[C@H](O)[C@@H]1O (stereo not given in full) ({Adenosine(5'-uronoyl)-Ahx}-RRRR[ξK](Biotin)-NHCH2CH2OCH2CH2OMe) | 5.92 |
| O=S(=O)(NCCNC/C=C/c1ccc(Br)cc1)c1cccc2cnccc12 | 6.87 |

## Task Answer with the recorded pIC50 for the compound listed here: COCCOCCNC(=O)C(CCCCN)NC(=O)[C@H](CCCN=C(N)N)NC(=O)[C@H](CCCN=C(N)N)NC(=O)[C@H](CCCN=C(N)N)NC(=O)[C@H](CCCN=C(N)N)NC(=O)CCCCCNC(=O)[C@H]1O[C@@H](n2cnc3c(N)ncnc32)[C@H](O)[C@@H]1O (stereo not given in full) ({Adenosine(5'-uronoyl)-Ahx}-RRRR[ξK]-NHCH2CH2OCH2CH2OMe)
## Result 6.34
